Listed next: entries and their corresponding IC50.
Test system: T24-BAG4 human bladder carcinoma cells expressing an activated H-ras gene
Test: Cell Mat Assay: tumor cell colony inhibition (tIC50)
Format: cell-based
Settings: inhibition of tumor cell growth

molecule: O=C(Cc1ccc(Br)cc1)N1CCN(C2c3ccc(Cl)cc3CCc3cccnc32)CC1 (stereo not shown)
IC50: > 50 µM
--
molecule: O=C(Cc1ccncc1)N1CCC(=C2c3ccc(Cl)cc3CCc3ccc[n+]([O-])c32)CC1
IC50: 37 µM
--
molecule: O=C(Cc1ccncc1)N1CCC(=C2c3ccncc3CCc3cc(Cl)ccc32)CC1
IC50: 37 µM
--
molecule: CC(C)(C(=O)N1CCC(=C2c3ccc(Cl)cc3CCc3cccnc32)CC1)c1ccccc1
IC50: 18 µM
--
molecule: O=C(Cc1cc[n+]([O-])cc1)N1CCC(=C2c3ccc(Cl)cc3CCc3cc(Br)cnc32)CC1
IC50: < 0.8 µM
--
molecule: O=C(Cc1ccccc1[N+](=O)[O-])C(=O)N1CCC(=C2c3ccc(Cl)cc3CCc3cccnc32)CC1
IC50: 25 µM
--
molecule: O=C(Nc1ccccc1)N1CCC(C2c3ccccc3CCc3cccnc32)CC1 (stereo not shown)
IC50: 6.25 µM
--
molecule: O=C(C(=O)N1CCC(=C2c3ccc(Cl)cc3CCc3cccnc32)CC1)c1c[nH]c2ccccc12
IC50: 25 µM
--
molecule: O=C(Cc1ccncc1)N1CCC(=C2c3cc(F)ccc3CCc3cccnc32)CC1
IC50: 25 µM
--
molecule: O=C(Cc1ccncc1)N1CCC(=C2c3ccc(Cl)cc3CCc3cc(Cl)cnc32)CC1 [180 (5.47)]
IC50: 18 µM
--
molecule: O=C(Cc1ccc[n+]([O-])c1)N1CCC(=C2c3ccc(Cl)cc3CCc3cc(Br)cnc32)CC1
IC50: 4 µM
--
molecule: CC(C)(C)c1cnc2c(c1)CCc1cc(Cl)ccc1C2=C1CCN(C(=O)Cc2ccncc2)CC1
IC50: 25 µM
--
molecule: Cc1ccc(CC(=O)N2CCC(=C3c4ccc(Cl)cc4CCc4cccnc43)CC2)cc1
IC50: 12.5 µM
--
molecule: O=C(Cc1ccncc1)N1CCC(=C2c3ccc(Cl)cc3CCc3c(Cl)ccnc32)CC1
IC50: 18 µM
--
molecule: O=C(Cc1csc2ccccc12)N1CCC(=C2c3ccc(Cl)cc3CCc3cccnc32)CC1
IC50: 6.25 µM
--
molecule: O=C(Cc1ccncc1)N1CCC(=C2c3ccc(Cl)cc3C=Cc3cccnc32)CC1
IC50: 12.5 µM
